testSystem: Human Androgen Receptor (Homo sapiens (Human))
Sequence (P10275 whole entry): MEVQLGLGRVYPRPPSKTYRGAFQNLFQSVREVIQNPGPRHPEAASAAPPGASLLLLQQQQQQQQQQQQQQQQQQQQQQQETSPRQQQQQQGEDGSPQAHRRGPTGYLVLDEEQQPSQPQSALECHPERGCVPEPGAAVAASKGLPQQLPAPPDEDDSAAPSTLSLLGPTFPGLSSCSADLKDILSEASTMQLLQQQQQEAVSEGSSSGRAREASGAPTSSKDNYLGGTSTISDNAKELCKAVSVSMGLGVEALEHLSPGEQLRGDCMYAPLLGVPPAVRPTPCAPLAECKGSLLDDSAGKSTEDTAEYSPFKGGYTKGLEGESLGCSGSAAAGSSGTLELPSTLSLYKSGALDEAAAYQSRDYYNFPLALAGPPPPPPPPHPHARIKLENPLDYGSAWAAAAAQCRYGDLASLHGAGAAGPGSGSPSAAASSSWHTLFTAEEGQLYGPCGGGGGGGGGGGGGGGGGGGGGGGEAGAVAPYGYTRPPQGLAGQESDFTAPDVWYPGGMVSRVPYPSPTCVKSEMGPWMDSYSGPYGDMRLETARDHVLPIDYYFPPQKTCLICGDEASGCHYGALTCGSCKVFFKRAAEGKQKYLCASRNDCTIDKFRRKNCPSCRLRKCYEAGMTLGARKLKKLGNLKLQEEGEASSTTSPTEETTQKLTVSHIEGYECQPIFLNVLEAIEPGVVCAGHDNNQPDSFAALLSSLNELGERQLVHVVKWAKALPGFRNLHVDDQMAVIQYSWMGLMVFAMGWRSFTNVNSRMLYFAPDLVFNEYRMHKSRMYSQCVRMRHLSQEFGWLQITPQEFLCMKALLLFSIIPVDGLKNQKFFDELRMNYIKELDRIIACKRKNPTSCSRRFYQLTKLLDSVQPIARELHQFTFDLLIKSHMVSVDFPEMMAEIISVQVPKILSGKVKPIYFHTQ
assayInfo: Androgen receptor assay: [3H]R1881 displacement, cytosol of HEK-293 cells transfected with hAR (hydroxylapatite assay)
Format: binding
recordedConditions: relative binding affinity, R1881 = 100; […]
Listed next: entries and their corresponding Human Androgen Receptor Binding RBA (%) R1881 = 100.
Write it as a number; the unit % goes unstated.

# example entries with known answers
{"smilesData": "CC1(C)C(=O)N(c2ccc(C#N)c(Cl)c2)C(=O)N1CCCOc1ccc(-c2ccncc2)cc1F", "readoutUnits": "%", "valueObserved": 22}
{"smilesData": "Cc1c(N2C(=O)C(C)(C)N(CCCOc3ccc(-c4ccncc4)cc3)C2=S)ccc(C#N)c1Cl", "readoutUnits": "%", "valueObserved": 664}

Please examine the following record next.
Consider the molecule Cc1c(N2C(=O)N(CCCOc3ccc(-c4ccncc4)c(C(F)(F)F)c3)C(C)(C)C2=O)ccc(C#N)c1Cl and give its measured Human Androgen Receptor Binding RBA (%) R1881 = 100. 64.1
